All figures here come from ChEMBL document CHEMBL3421611.

- Target Under Test: Cannabinoid receptor 1 (Rattus norvegicus, UniProt P20272)
- Sequence (P20272 whole entry): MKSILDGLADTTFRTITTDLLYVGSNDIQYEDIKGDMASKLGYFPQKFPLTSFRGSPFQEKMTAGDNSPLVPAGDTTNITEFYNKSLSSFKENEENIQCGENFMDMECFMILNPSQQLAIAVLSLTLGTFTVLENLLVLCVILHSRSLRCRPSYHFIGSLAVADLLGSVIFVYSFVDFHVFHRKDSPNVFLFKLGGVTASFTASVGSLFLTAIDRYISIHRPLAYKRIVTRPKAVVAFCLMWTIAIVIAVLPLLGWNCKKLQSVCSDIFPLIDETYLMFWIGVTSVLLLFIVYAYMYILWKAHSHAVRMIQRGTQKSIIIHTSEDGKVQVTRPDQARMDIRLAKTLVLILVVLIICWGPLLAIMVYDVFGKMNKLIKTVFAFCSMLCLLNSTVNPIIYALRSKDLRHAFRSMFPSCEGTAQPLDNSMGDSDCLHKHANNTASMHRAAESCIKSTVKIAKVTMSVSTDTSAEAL
- Experiment Description: Agonist activity at CB1 receptor in rat cerebellar membranes after 90 mins by [35S]-GTPgammaS assay
Readout Type: EC50 (nM)
# unit: nM | format: bare number

Notebook entry, Cannabinoid receptor 1 (Rattus norvegicus, UniProt P20272) assay: EC50 of CCCCCn1c(=O)c(C(=O)NC2CCC(C)CC2)cc2ccccc21 (stereo unspecified) = ?
2510

----------
- Target Under Test: UniProt P34972
- Experiment Description: Displacement of [3H]-CP-55940 from recombinant human CB2 receptor overexpressed in HEK293 cell membranes after 90 mins
Simple rule here: Ki less than 20 nM is YES, otherwise NO.

Worked examples follow.
Item CCCCCn1c(=O)c(C(=O)NC2CCC(C)CC2)cc2ccccc21 (stereo not given) : Ki beneath 20 nM, strictly?
YES

Could you do the same for CC1CCC(NC(=O)c2cc3ccccc3n(CCCO)c2=O)CC1 (stereo not given) , please?
NO

Note, next up: CC1CCC(NC(=O)c2c(O)c3cccnc3n(CCCO)c2=O)CC1 (stereo not given)
NO

Moving on to the next molecule: CC1CCC(NC(=O)c2c(O)c3cccnc3n(Cc3ccc(F)cc3)c2=O)CC1 (stereo not given)
YES

More entries:
hey, is Ki for CCCn1c(=O)c(C(=O)NC2CCC(C)CC2)cc2ccccc21 (stereo not given) lower than 20 nM or not?
NO

Note, next up: CC1CCC(NC(=O)c2c(O)c3cccnc3n(CCN3CCOCC3)c2=O)CC1 (stereo not given)
YES

Try this molecule next: CC1CCC(NC(=O)c2cc3ccccc3n(CCN3CCOCC3)c2=O)CC1 (stereo not given)
YES

Repeat with CC1CCC(NC(=O)c2cc3ccccc3n(Cc3ccc(F)cc3)c2=O)CC1 (stereo not given)
YES

Param item: CCCCn1c(=O)c(C(=O)NC2CCC(C)CC2)c(O)c2cccnc21 (stereo not given)
YES

----------
- Target Under Test: Cannabinoid receptor 2 (Homo sapiens)
- Sequence (P34972 whole entry): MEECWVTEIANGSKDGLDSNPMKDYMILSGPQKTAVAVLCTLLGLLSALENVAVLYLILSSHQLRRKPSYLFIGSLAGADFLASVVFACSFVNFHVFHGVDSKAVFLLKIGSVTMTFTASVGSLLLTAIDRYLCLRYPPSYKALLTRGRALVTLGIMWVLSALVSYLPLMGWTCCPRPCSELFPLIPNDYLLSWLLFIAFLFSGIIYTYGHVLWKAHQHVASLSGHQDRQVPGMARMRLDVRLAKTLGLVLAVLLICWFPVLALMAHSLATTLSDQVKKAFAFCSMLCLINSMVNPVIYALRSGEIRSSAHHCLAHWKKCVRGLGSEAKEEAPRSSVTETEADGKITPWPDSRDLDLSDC
- Experiment Description: Agonist activity at human CB2 receptor transfected in CHO cell membranes after 90 mins by [35S]-GTPgammaS assay
- Type: functional
# EC50 annotations
Report only the number, with the unit nM understood.

State the recorded EC50 for this entry: CCCCCn1c(=O)c(C(=O)NC2CCC(C)CC2)cc2ccccc21 (configuration not stated)
2

// next entry
I'd like to know its EC50. The compound in question is CC1CCC(NC(=O)c2c(O)c3cccnc3n(Cc3ccc(F)cc3)c2=O)CC1 (configuration not stated)
3.16

----------
- Tested on: LNCaP
- Experiment Description: Cytotoxicity against human LNCAP cells expressing CB2 receptor assessed as decrease in cell viability after 72 hrs by neutral red uptake and accumulation assay
Item-by-item account of pIC50
Note on units: pIC50 is unitless, being -log10 of a concentration expressed in mol/L.

Previously resolved entries follow.
Query: pIC50; subject: CC1CCC(NC(=O)c2c(O)c3cccnc3n(Cc3ccc(F)cc3)c2=O)CC1 (stereo not drawn)
5.68

Continue with CCCCCn1c(=O)c(C(=O)NC2CCC(C)CC2)cc2ccccc21 (stereo not drawn)
5.41

Next:
Could you tell me which pIC50 is on file for `CCCC(C)(C)c1ccc2c(c1)OC(C)(C)[C@@H]1CC=C(C)C[C@@H]21` ?
4.93

----------
- Species: Homo sapiens
- Experiment Description: Selectivity index, ratio of Ki for recombinant human CB1 receptor to Ki for recombinant human CB2 receptor
Reported Ratio Ki values for the following compounds.
A bare number is all that is needed in reply.

Before answering, review these 3 worked examples.
Query (compound): CCCn1c(=O)c(C(=O)NC2CCC(C)CC2)cc2ccccc21 (stereo not drawn) ; field requested: Ratio Ki
102

Check CC1CCC(NC(=O)c2c(O)c3cccnc3n(CCN3CCOCC3)c2=O)CC1 (stereo not drawn) too.
85

Query CC1CCC(NC(=O)c2cc3ccccc3n(CCCO)c2=O)CC1 (stereo not drawn) next
104

Others:
Find the recorded Ratio Ki belonging to CCCCn1c(=O)c(C(=O)NC2CCC(C)CC2)cc2ccccc21 (stereo not drawn) and report it.
28

Would you mind doing CC1CCC(NC(=O)c2cc3ccccc3n(CCN3CCOCC3)c2=O)CC1 (stereo not drawn) as well?
190

Can you handle CCCCn1c(=O)c(C(=O)NC2CCC(C)CC2)c(O)c2cccnc21 (stereo not drawn) next?
62

Moving on to CC1CCC(NC(=O)c2cc3ccccc3n(Cc3ccc(F)cc3)c2=O)CC1 (stereo not drawn)
27.7
